# tested_system: MMP-3 (Homo sapiens)
# Construct: Truncated Prostromelysin-257 was expressed in a soluble form in E.coli; made in house; host or cells: E. coli
# assay_method_text: Automated MMP Profiling Assay, MMP-3 fluorogenic
# Type: biochemical
# test_context: 96-well automated, P218
pIC50 for assorted molecules
// pIC50 is dimensionless: -log10 of concentration (M)

molecule | val
O=C(CC(CCCc1ccccc1)C(=O)O)c1ccc(-c2ccc(OCCc3ccccc3)cc2)cc1 (stereo not shown) | 7.11

Known value: MMP-3 (Homo sapiens) pIC50 of the molecule CCCCC#Cc1ccc(-c2ccc(C(=O)CC(CCCc3ccccc3)C(=O)O)cc2)cc1 (stereo not shown) equals 6.89

GET /values?item= COc1ccc2c(c1)C(=O)N(CCC(CC(=O)c1ccc(-c3ccc(Cl)cc3)cc1)C(=O)O)C2=O (stereo not shown) &system= MMP-3 (Homo sapiens) returns pIC50: 8.08

Here CCCCCOc1ccc(-c2ccc(C(=O)[C@H]3CC[C@@H](Sc4ccccc4)[C@@H]3C(=O)O)cc2)cc1 (single isomer, unassigned) was tested on MMP-3 (Homo sapiens), and its pIC50 came to 7.52

Note to self: pIC50 of Cc1ccc(/C=C/[C@@H]2CC[C@H](C(=O)c3ccc(-c4ccc(Cl)cc4)cc3)[C@H]2C(=O)O)cc1 (relative stereo) with MMP-3 (Homo sapiens) was 5.30

The molecule COc1cccc2c1C(=O)N(CCC(CC(=O)c1ccc(-c3ccc(Cl)cc3)cc1)C(=O)O)C2=O (stereo not shown) , when measured on MMP-3 (Homo sapiens), yielded pIC50 of 7.72

Summary line: O=C(CC(CCc1ccc(I)cc1)C(=O)O)c1ccc(-c2ccc(Cl)cc2)cc1 (stereo not shown) , MMP-3 (Homo sapiens), reported pIC50 = 6.25

Measured pIC50 for this entry O=C(O)[C@H]1[C@H](CSCc2ccccc2)CC[C@@H]1C(=O)c1ccc(-c2ccc(Cl)cc2)cc1 (relative stereo) on MMP-3 (Homo sapiens): 7.41

With MMP-3 (Homo sapiens) as the test system, CCCCNC(=O)c1ccccc1CCC(CC(=O)c1ccc(-c2ccc(Cl)cc2)cc1)C(=O)O (stereo not shown) showed pIC50 of 6.58

Assay MMP-3 (Homo sapiens), sample O=C(O)c1cccc(CCC(CC(=O)c2ccc(-c3ccc(Cl)cc3)cc2)C(=O)O)c1 (stereo not shown) , pIC50 read: 7.05

Record O=C(O)[C@H]1[C@H](COc2ccc(Cl)cc2)CC[C@@H]1C(=O)c1ccc(-c2ccc(Cl)cc2)cc1 (relative stereo) ; system MMP-3 (Homo sapiens); pIC50 = 6.98

Readout pIC50 for C#Cc1ccc(-c2ccc(C(=O)CC(CCCc3ccccc3)C(=O)O)cc2)cc1 (stereo not shown) , test system MMP-3 (Homo sapiens), was 6.97

The reported MMP-3 (Homo sapiens) pIC50 of Cc1ccc2c(c1)C(=O)N(CCC(CC(=O)c1ccc(-c3ccc(Cl)cc3)cc1)C(=O)O)C2=O (stereo not shown) is 8.02

For the molecule CCCCCOc1ccc(-c2ccc(C(=O)CC(CCCc3ccccc3)C(=O)O)cc2)cn1 (stereo not shown) , the measured pIC50 on MMP-3 (Homo sapiens) was 5.94

Kindly note: MMP-3 (Homo sapiens), O=C(CC(CCCc1ccccc1)C(=O)O)c1ccc(-c2ccc(Cl)cc2)cc1 (stereo not shown) , pIC50 value reported: 6.61

The recorded pIC50 with MMP-3 (Homo sapiens) for CCCCCOc1ccc(-c2ccc(C(=O)CC(CCc3cccc(C(=O)N(CC)CC)c3)C(=O)O)cc2)cc1 (stereo not shown) was 7.52

Log: MMP-3 (Homo sapiens), molecule CC(=O)O[C@H]1C[C@H](C(=O)c2ccc(-c3ccc(Cl)cc3)cc2)[C@H]1C(=O)O (relative stereo) , pIC50 = 5.66

The molecule O=C(O)[C@H]1CN(C(=O)OCc2ccccc2)C[C@@H]1C(=O)c1ccc(-c2ccc(Cl)cc2)cc1 (relative stereo) on MMP-3 (Homo sapiens): pIC50 was 6.84

###

# tested_system: MMP-3 (Homo sapiens, UniProt P08254)
# Construct: Truncated Prostromelysin-257 was expressed in a soluble form in E.coli; made in house; host or cells: E. coli
# Sequence (P08254 100-274 limits assumed): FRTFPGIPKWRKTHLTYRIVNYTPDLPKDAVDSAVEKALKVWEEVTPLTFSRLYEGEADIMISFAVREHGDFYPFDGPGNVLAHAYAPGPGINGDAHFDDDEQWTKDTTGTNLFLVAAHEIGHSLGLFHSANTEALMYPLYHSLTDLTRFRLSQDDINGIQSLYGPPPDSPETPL
# assay_method_text: Primary Thiopeptilide MMP-3 Inhibition Assay
# Format: biochemical
# test_context: pH 6.5; 13 nM stromelysin; x (n) = average of n determinations; read-out: MMP-3 Thiopep. IC50
reported_property: pIC50
Lab note — pIC50 values are minus log10 of concentrations in M.

Solved entries (count: 7):
molecule | val
O=C(CC(CCCc1ccccc1)C(=O)O)c1ccc(-c2ccc(Cl)c(Cl)c2)cc1 (centres unmarked) | 6.08
O=C(CC(CSc1ccc(Cl)cc1)C(=O)O)c1ccc(-c2ccc(Cl)cc2)cc1 (centres unmarked) | 6.47
O=C(CC(CCCc1ccccc1)C(=O)O)c1ccc(-c2ccc([N+](=O)[O-])cc2)cc1 (centres unmarked) | 6.01
O=C(O)CCc1ccc(SCC(CC(=O)c2ccc(-c3ccc(Cl)cc3)cc2)C(=O)O)cc1 (centres unmarked) | 6.51
C[C@@H](C(=O)O)[C@@H](C)C(=O)c1ccc(-c2ccc(Cl)cc2)cc1 (relative stereo) | 5.62
Nc1ccc(-c2ccc(C(=O)CC(CCCc3ccccc3)C(=O)O)cc2)cc1 (centres unmarked) | 5.92
O=C(CC(CSc1cccc(Br)c1)C(=O)O)c1ccc(-c2ccc(Cl)cc2)cc1 (centres unmarked) | 6.44

The measured pIC50 associated with CC(C)CC(CCC(=O)O)C(=O)c1ccc(-c2ccc(Cl)cc2)cc1 (centres unmarked) reads 6.44

###

This section presents compounds with their documented pIC50 values.
# tested_system: MMP-9 (Homo sapiens)
# Construct: from tissue; host or cells: human polymorphonuclear leukocytes (PMN) from whole blood (New York Blood Center), PMA-stimulated supernatant
# Sequence (P14780 107-707 limits assumed): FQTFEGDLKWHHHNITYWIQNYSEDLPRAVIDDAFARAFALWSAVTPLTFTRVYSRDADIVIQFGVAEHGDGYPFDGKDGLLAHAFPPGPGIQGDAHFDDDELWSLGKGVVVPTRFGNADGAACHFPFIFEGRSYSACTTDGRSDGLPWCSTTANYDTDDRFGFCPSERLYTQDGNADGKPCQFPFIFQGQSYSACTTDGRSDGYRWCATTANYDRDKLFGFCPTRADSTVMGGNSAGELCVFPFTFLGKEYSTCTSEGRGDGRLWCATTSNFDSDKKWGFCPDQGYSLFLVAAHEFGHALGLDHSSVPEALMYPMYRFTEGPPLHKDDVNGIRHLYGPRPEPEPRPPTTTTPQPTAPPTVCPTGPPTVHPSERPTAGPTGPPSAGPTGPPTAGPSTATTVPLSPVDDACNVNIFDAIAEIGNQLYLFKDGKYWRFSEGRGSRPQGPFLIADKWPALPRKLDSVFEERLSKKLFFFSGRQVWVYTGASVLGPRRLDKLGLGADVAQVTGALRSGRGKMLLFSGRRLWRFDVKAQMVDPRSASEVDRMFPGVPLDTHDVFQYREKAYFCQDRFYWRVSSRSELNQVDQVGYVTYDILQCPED
# assay_method_text: Thiopeptilide MMP-9 Inhibition Assay
# Assay type: biochemical
# test_context: pH 6.5; x (n) = average of n determinations; read-out: MMP-9: Thiopep. IC50
The quantity pIC50 is defined as the negative base-10 logarithm of the molar concentration.

Some solved cases for reference:
compound | pIC50
O=C(CC(CCCc1ccccc1)C(=O)O)c1ccc(-c2ccc(Cl)cc2)cc1 (stereo not shown) [Example 114] | 6.55
O=C(CC(CSc1ccccc1CO)C(=O)O)c1ccc(-c2ccc(Cl)cc2)cc1 (stereo not shown) [Example 217] | 6.61
O=C(CC(CSc1ccc(Cl)c(Cl)c1)C(=O)O)c1ccc(-c2ccc(Cl)cc2)cc1 (stereo not shown) [Example 216] | 6.23

Sure, the documented pIC50 for C=C(CC(=O)O)C(=O)c1ccc(-c2ccc(Cl)cc2)cc1 [Example 32, reference compound] is 5.22

###

# tested_system: MMP-3 (Homo sapiens, UniProt P08254)
# Construct: Truncated Prostromelysin-257 was expressed in a soluble form in E.coli; made in house; host or cells: E. coli
# assay_method_text: Primary Thiopeptilide MMP-3 Inhibition Assay
# Assay type: biochemical
# test_context: pH 6.5; 13 nM stromelysin; x (n) = average of n determinations; read-out: MMP-3 Thiopep. IC50
Readings of pIC50 for the listed compounds
Recall that pIC50 is obtained by taking minus log10 of the concentration measured in molar.

Example results:
compound | reported_property | val
COc1ccc(CSCC(CC(=O)c2ccc(-c3ccc(Cl)cc3)cc2)C(=O)O)cc1 (centres unmarked) | pIC50 | 6.47
Cc1ccc(CCCC(CC(=O)c2ccc(-c3ccc(Cl)cc3)cc2)C(=O)O)cc1 (centres unmarked) | pIC50 | 6.55

Item: Cc1ccccc1S[C@H]1CC[C@@H](C(=O)c2ccc(-c3ccc(Cl)cc3)cc2)[C@H]1C(=O)O (relative stereo) | pIC50: 6.33

Item: O=C(CC(CCCc1ccccc1)C(=O)O)c1ccc(-c2ccc(Cl)s2)cc1 (centres unmarked) | pIC50: 6.55

Summary for this compound, O=C(C[C@H](C[S+]([O-])c1ccccc1)C(=O)O)c1ccc(-c2ccc(Cl)cc2)cc1 (some centres unmarked) [Example 248] : pIC50 is 6.08

Lookup result for O=C(CC(CCCc1ccccc1)C(=O)O)c1ccc(-c2ccccc2)cc1 (centres unmarked) ; measured pIC50: 5.55

For this compound ( CC(=O)Nc1ccc(SCC(CC(=O)c2ccc(-c3ccc(Cl)cc3)cc2)C(=O)O)cc1 (centres unmarked) ), measured pIC50 is 6.03

Input O=C(CC(CSc1cccs1)C(=O)O)c1ccc(-c2ccc(Cl)cc2)cc1 (centres unmarked) . Output pIC50: 6.77

###

# tested_system: MMP-2 (Homo sapiens)
# Sequence (P08253 110-660): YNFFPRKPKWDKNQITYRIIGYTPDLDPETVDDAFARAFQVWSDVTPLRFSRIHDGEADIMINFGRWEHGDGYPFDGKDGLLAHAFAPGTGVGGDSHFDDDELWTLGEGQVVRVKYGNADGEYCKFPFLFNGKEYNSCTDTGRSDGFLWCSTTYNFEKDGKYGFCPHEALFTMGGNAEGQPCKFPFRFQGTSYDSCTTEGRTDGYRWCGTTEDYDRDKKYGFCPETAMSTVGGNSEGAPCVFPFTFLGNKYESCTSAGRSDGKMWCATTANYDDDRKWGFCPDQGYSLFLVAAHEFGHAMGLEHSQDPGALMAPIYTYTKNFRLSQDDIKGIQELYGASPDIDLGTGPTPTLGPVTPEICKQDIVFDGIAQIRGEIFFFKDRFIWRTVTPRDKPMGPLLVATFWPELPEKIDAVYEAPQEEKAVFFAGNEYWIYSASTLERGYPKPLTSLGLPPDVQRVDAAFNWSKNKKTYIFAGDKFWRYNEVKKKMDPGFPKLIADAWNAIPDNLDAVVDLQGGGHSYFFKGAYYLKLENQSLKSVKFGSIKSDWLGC
# assay_method_text: Automated MMP Profiling Assay, MMP-2 fluorogenic
# Assay type: biochemical
# test_context: 96-well automated, P218; read-out: MMP-2 Fluorogenic IC50 (profiling)
reported_property: log10 IC50 (log10 of the value in nM)
Use the decimal logarithm of IC50 (nM).

Some entries whose results are on file:
compound | reported_property | val
O=C(CC(CCN1C(=O)c2ccccc2C1=O)C(=O)O)c1ccc(-c2ccc(Cl)cc2)cc1 (racemic) | log10 IC50 | 0.41
COc1cccc(C(=O)OC[C@@H]2CC[C@H](C(=O)c3ccc(-c4ccc(Cl)cc4)cc3)[C@H]2C(=O)O)c1 (relative stereo) | log10 IC50 | 1.81
CC(C)(C)OC(=O)Nc1ccc(-c2ccc(C(=O)CC(CCc3ccccc3)C(=O)O)cc2)cc1 (stereo not shown) | log10 IC50 | 2.82
CCCOc1ccc(-c2ccc(C(=O)CC(CCc3ccccc3)C(=O)O)cc2)cc1 (stereo not shown) | log10 IC50 | 1.54
CCCCCOc1ccc(-c2ccc(C(=O)CC(CCc3ccccc3)C(=O)O)cc2)cc1 (stereo not shown) | log10 IC50 | 1.51

Simply: CCCCNC(=O)c1ccc(CCC(CC(=O)c2ccc(-c3ccc(Cl)cc3)cc2)C(=O)O)cc1 (stereo not shown) , MMP-2 (Homo sapiens), log10 IC50 = 2.32

Measured log10 IC50 for this entry COc1cc(CCC(CC(=O)c2ccc(-c3ccc(Cl)cc3)cc2)C(=O)O)cc(OC)c1 (stereo not shown) on MMP-2 (Homo sapiens): 1.95

Hey, just so you know, these numbers are from patent US5789434A.
